// provenance: patent US20220305012A1

Assay explanation: Example 1: plasma concentrations of lemborexant and metabolites
Assay type: in vivo, human
Recorded conditions: human, plasma, 10 mg, lemborexant 10 mg dose; Month 3; read-out: Plasma concentration, Mean (SD)
Value kind: concentration at 3 month (ng/mL)

> print(dat)
                                   molecule   val
1  Cc1ncc(OC[C@@]2(c3cccc(F)c3)C[C@H]2C(=O)Nc2ccc(F)cn2)c(C)n1 [Lemborexant]  15.6

---

Assay explanation: Example 1: plasma concentrations of lemborexant and metabolites
Format: in vivo, human
Recorded conditions: human, plasma, 10 mg, lemborexant 10 mg dose; Month 1; read-out: Plasma concentration, Median
Value kind: concentration at 1 month (ng/mL)

> print(dat)
                            chemical.string                value.kind   val
1  Cc1ncc(OC[C@@]2(c3cccc(F)c3)C[C@H]2C(=O)Nc2ccc(F)cn2)c(C)n1  concentration at 1 month  15.1

---

Assay explanation: Example 1: plasma concentrations of lemborexant and metabolites
Assay type: in vivo, human
Recorded conditions: human, plasma, 10 mg, lemborexant 10 mg dose; Month 6; read-out: Plasma concentration, Median
Value kind: concentration at 6 month

> print(dat)
                                   compound         val
1  Cc1ncc(OC[C@@]2(c3cccc(F)c3)C[C@H]2C(=O)Nc2ccc(F)cn2)c(C)n1 [Lemborexant]  14.5 ng/mL

---

Assay explanation: Example 1: plasma concentrations of lemborexant and metabolites
Assay type: in vivo, human
Recorded conditions: human, plasma, 10 mg, lemborexant 10 mg dose; Month 6; read-out: Plasma concentration, Mean (SD)
Value kind: concentration at 6 month

> print(dat)
                            chemical.string                value.kind         val
1  Cc1ncc(OC[C@@]2(c3cccc(F)c3)C[C@H]2C(=O)Nc2ccc(F)cn2)c(C)n1  concentration at 6 month  15.2 ng/mL

---

Assay explanation: Example 1: plasma concentrations of lemborexant and metabolites
Assay type: in vivo, human
Recorded conditions: human, plasma, oral, 5 mg, lemborexant 5 mg dose; Month 1; read-out: Plasma concentration, Median
Value kind: concentration at 1 month

> print(dat)
                                   compound        val
1  Cc1ncc(OC[C@@]2(c3cccc(F)c3)C[C@H]2C(=O)Nc2ccc(F)cn2)c(C)n1 [Lemborexant]  7.6 ng/mL

---

Assay explanation: Example 1: plasma concentrations of lemborexant and metabolites
Assay type: in vivo, human
Recorded conditions: human, plasma, 10 mg, lemborexant 10 mg dose; Month 3; read-out: Plasma concentration, Median
Value kind: concentration at 3 month (ng/mL)

> print(dat)
                            chemical.string   val
1  Cc1ncc(OC[C@@]2(c3cccc(F)c3)C[C@H]2C(=O)Nc2ccc(F)cn2)c(C)n1  15.1

---

Assay explanation: Example 1: plasma concentrations of lemborexant and metabolites
Assay type: in vivo, human
Recorded conditions: human, plasma, oral, 5 mg, lemborexant 5 mg dose; Month 1; read-out: Plasma concentration, Mean (SD)
Value kind: concentration at 1 month (ng/mL)

> print(dat)
                            chemical.string                value.kind  val
1  Cc1ncc(OC[C@@]2(c3cccc(F)c3)C[C@H]2C(=O)Nc2ccc(F)cn2)c(C)n1  concentration at 1 month    9
